Cited source: patent EP0938471B1

- targetSystem: MMP-9 (Homo sapiens, UniProt P14780)
- Sequence (P14780 94-707): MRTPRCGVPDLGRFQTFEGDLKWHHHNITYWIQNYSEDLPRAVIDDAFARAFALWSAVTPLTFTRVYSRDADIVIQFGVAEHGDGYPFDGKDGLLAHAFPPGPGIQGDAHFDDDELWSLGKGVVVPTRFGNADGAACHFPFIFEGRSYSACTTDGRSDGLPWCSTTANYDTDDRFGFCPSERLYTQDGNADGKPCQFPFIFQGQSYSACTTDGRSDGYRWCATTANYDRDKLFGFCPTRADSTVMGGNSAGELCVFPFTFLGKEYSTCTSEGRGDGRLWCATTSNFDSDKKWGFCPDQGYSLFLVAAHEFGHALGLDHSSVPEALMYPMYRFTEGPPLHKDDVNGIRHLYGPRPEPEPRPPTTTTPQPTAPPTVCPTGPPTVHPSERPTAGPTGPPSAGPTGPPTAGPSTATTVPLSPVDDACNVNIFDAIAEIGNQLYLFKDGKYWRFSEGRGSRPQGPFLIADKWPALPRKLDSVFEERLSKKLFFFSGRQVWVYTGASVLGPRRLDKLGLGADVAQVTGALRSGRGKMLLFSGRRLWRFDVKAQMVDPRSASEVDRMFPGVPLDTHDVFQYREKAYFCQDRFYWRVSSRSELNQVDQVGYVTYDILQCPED
- methodSummary: MMP-9 inhibition (thiopeptide or fluorescent peptide substrate assay)
- Type: biochemical
- cond: read-out: MMP-9 IC50
parameterMeasured: IC50 (nM)

>>> df
                                   molecule  unitdescriptor  reported
0  CCCCCCCCN(C)C(=O)C=Cc1cc(C)c(N(C)S(=O)(=O)c2ccc(OC)cc2)c(C(=O)NO)c1              nM         2

I = COc1ccc(S(=O)(=O)N(Cc2cccnc2)c2c(C)cc(-c3sccc3C=NO)cc2C(=O)NO)cc1
II = COc1ccc(S(=O)(=O)N(C)c2c(CN3CCOCC3)cccc2C(=O)NO)cc1
Which has the higher IC50, I or II ? // output: label of the selected item
I

---

- targetSystem: MMP-9 (Homo sapiens, UniProt P14780)
- methodSummary: MMP-9 inhibition (thiopeptide or fluorescent peptide substrate assay)
- Format: biochemical
- cond: read-out: MMP-9 IC50
pIC50: −log10 of the molar value.
parameterMeasured: pIC50

Recorded pIC50, per entry:
                                     smiles                          targetsystem  parametermeasured  reported
0  COc1ccc(S(=O)(=O)N(Cc2ccccc2)c2c(Cl)cccc2C(=O)NO)cc1  MMP-9 (Homo sapiens, UniProt P14780)              pIC50      7.51
1  CCCCCCCCN(C)C(=O)C=Cc1cc(C)c(N(Cc2cccnc2)S(=O)(=O)c2ccc(OC)cc2)c(C(=O)NO)c1  MMP-9 (Homo sapiens, UniProt P14780)              pIC50      7.96
2  COc1ccc(S(=O)(=O)N(Cc2ccccn2)c2c(C)cccc2C(=O)NO)cc1  MMP-9 (Homo sapiens, UniProt P14780)              pIC50      8.15
3  COc1ccc(S(=O)(=O)N(Cc2cccnc2)c2c(CO)cccc2C(=O)NO)cc1  MMP-9 (Homo sapiens, UniProt P14780)              pIC50      7.96
4  COc1ccc(S(=O)(=O)N(C)c2c(CN3CCCC3)cccc2C(=O)NO)cc1  MMP-9 (Homo sapiens, UniProt P14780)              pIC50      7.68

P = COc1ccc(S(=O)(=O)N(Cc2ccc(OCCN3CCCCC3)cc2)c2c(C)cccc2C(=O)NO)cc1
Q = Cc1cc(C)c(N(Cc2ccccc2)S(=O)(=O)c2ccc(F)cc2)c(C(=O)NO)c1
// task: argmin of pIC50 over [ P , Q ] // output: label of the selected item
Q
(Q: 6.06, P: 8.16)

I = Cc1cccc(C(=O)NO)c1N(Cc1ccc(Cl)cc1)S(=O)(=O)c1ccc(-c2ccccn2)s1
II = COc1ccc(S(=O)(=O)N(C)c2c(CCC(=O)NO)cccc2C(=O)NO)cc1
// task: argmin of pIC50 over [ I , II ] // output: label of the selected item
I

---

- targetSystem: TACE (Homo sapiens, UniProt P78536)
- Sequence (P78536 215-824): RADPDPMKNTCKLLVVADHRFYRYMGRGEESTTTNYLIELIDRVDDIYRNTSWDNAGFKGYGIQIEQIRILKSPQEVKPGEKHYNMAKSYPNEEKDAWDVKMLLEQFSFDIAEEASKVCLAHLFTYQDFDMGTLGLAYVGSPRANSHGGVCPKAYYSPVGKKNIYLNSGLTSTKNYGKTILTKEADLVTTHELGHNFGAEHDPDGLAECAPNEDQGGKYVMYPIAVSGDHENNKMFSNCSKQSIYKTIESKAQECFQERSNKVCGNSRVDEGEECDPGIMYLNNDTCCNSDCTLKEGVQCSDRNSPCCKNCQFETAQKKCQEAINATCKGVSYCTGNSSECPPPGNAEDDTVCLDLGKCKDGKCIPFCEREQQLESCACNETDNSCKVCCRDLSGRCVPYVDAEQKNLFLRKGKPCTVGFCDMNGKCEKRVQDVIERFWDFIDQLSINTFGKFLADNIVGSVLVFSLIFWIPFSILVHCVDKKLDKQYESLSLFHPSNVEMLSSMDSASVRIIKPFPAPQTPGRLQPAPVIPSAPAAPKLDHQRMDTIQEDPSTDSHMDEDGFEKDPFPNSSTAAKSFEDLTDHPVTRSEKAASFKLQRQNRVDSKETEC
- methodSummary: TACE inhibition (fluorescent peptidyl substrate)
- Format: biochemical
- cond: at 1µM concentration
Where a name gives a salt, the structure may show the parent alone.
parameterMeasured: inhibition at 1 µM (%)

Recorded inhibition at 1 µM, per entry:
>>> df
                                   compound                         targetsystem  reported
0  COc1ccc(S(=O)(=O)N(Cc2ccccc2)c2c(OC(C)(C)C(=O)NO)cccc2C(=O)NO)cc1  TACE (Homo sapiens, UniProt P78536)        32
1  CCN(C(=O)C=Cc1cc(C)c(N(Cc2cccnc2)S(=O)(=O)c2ccc(OC)cc2)c(C(=O)NO)c1)c1ccccc1  TACE (Homo sapiens, UniProt P78536)        47
2  Cc1cc(C)c(N(Cc2ccccc2)S(=O)(=O)c2ccc(OC(C)C)cc2)c(C(=O)NO)c1  TACE (Homo sapiens, UniProt P78536)        25
3  COc1ccc(S(=O)(=O)N(CC(=O)NCc2ccccn2)c2c(C)cccc2C(=O)NO)cc1  TACE (Homo sapiens, UniProt P78536)        46
4  COc1ccc(S(=O)(=O)N(Cc2cccnc2)c2c(C)cc(-c3ccc(OC(F)(F)F)cc3)cc2C(=O)NO)cc1 [Example 404, hydrochloride salt]  TACE (Homo sapiens, UniProt P78536)        54

a = COc1ccc(S(=O)(=O)N(CCO)c2c(C)cccc2C(=O)NO)cc1
b = Cc1cccc(C(=O)NO)c1N(Cc1cccnc1)S(=O)(=O)c1ccc(-c2cccs2)cc1
Which has the higher inhibition at 1 µM, a or b ? // output: label of the selected item
a
(a: 35%, b: 3%)
